Assay: Octanol-water partition coefficient, log K of the compound
Type: physicochemical
Settings: read-out: log K
RECORDED_METRIC: logP

>>> endpoint_value("CCN(CC)C(=O)n1cnc(S(=O)(=O)C(CC2CC2)C(=O)OC)n1 (stereo not given)")
0.6
>>> endpoint_value("CCN(CC)C(=O)n1cnc(S(=O)(=O)C(CC2CCCCC2)C(=O)OC)n1 (stereo not given)")
0.94
>>> endpoint_value("CCN(CC)C(=O)n1cnc(S(=O)(=O)C(CC(C)C)C(=O)OC(C)C)n1 (stereo not given)")
0.89

The reported value for CCN(CC)C(=O)n1cnc(S(=O)(=O)C(C(=O)OC)C2CCCC2)n1 (stereo not given) in terms of logP is 0.69

The reported value for CCN(CC)C(=O)n1cnc(S(=O)(=O)C(Cc2ccccc2)C(=O)OC)n1 (stereo not given) in terms of logP is 0.69

----------
In this section, each of the compounds is paired with its reported Activity.
System: Echinochloa oryzicola
Test: Herbicidal activity against Echinochloa oryzicola assessed as killing at 50 g/ha pre-emergence application under paddy conditions
Type: functional
Value expressed in %; do not type the unit.

// worked examples, Activity included
>>> endpoint_value("CCC(C(=O)OC)S(=O)(=O)c1ncn(C(=O)N(CC)CC)n1 (stereo not given)")
60
>>> endpoint_value("CCN(CC)C(=O)n1cnc(S(=O)(=O)C(CC(C)C)C(=O)OC(C)C)n1 (stereo not given)")
100
>>> endpoint_value("CCCCOC(=O)C(CC(C)C)S(=O)(=O)c1ncn(C(=O)N(CC)CC)n1 (stereo not given)")
100
>>> endpoint_value("CCCCCOC(=O)C(CC(C)C)S(=O)(=O)c1ncn(C(=O)N(CC)CC)n1 (stereo not given)")
40
>>> endpoint_value("CCN(CC)C(=O)n1cnc(S(=O)(=O)C(CCCC#N)C(=O)OC)n1 (stereo not given)")
10

The reported value for CCN(CC)C(=O)n1cnc(S(=O)(=O)C(CC(C)C)C(=O)OCC(C)C)n1 (stereo not given) in terms of Activity is 80

The reported value for CCN(CC)C(=O)n1cnc(S(=O)(=O)C(Cc2ccccc2)C(=O)OC)n1 (stereo not given) in terms of Activity is 50

The reported value for CCN(CC)C(=O)n1cnc(S(=O)(=O)C(CC(=O)OC)C(=O)OC)n1 (stereo not given) in terms of Activity is 10

The reported value for CCN(CC)C(=O)n1cnc(S(=O)(=O)c2c(C)cc(C)cc2C)n1 in terms of Activity is 100

The reported value for CCN(CC)C(=O)C(CC(C)C)S(=O)(=O)c1ncn(C(=O)N(CC)CC)n1 (stereo not given) in terms of Activity is 10

----------
Experiment: Herbicidal activity against broadleaf weed assessed as killing at 25 g/ha pre-emergence application under paddy conditions
Type: functional
In this section, each of the molecules is paired with its reported Activity.
Value expressed in %; do not type the unit.

The reported value for CCN(CC)C(=O)n1cnc(S(=O)(=O)C(CC(C)C)C(=O)OC)n1 (stereo not given) in terms of Activity is 70

The reported value for CCCOC(=O)C(CC(C)C)S(=O)(=O)c1ncn(C(=O)N(CC)CC)n1 (stereo not given) in terms of Activity is 60

The reported value for CCCCOC(=O)C(CC(C)C)S(=O)(=O)c1ncn(C(=O)N(CC)CC)n1 (stereo not given) in terms of Activity is 60

The reported value for CCN(CC)C(=O)n1cnc(S(=O)(=O)c2c(C)cc(C)cc2C)n1 in terms of Activity is 90

The reported value for CCN(CC)C(=O)n1cnc(S(=O)(=O)C(CC(C)C)C(=O)OC(C)C)n1 (stereo not given) in terms of Activity is 90

----------
In this section, each of the compounds is paired with its reported Activity.
System: Schoenoplectiella juncoides
Test: Herbicidal activity against Schoenoplectiella juncoides assessed as killing at 25 g/ha pre-emergence application under paddy conditions
Assay type: functional
Value expressed in %; do not type the unit.

// worked examples, Activity included
>>> endpoint_value("CCN(CC)C(=O)n1cnc(S(=O)(=O)[C@H](CC(C)C)C(=O)OC(C)C)n1")
40
>>> endpoint_value("CCCOC(=O)C(CC(C)C)S(=O)(=O)c1ncn(C(=O)N(CC)CC)n1 (stereo not given)")
70
>>> endpoint_value("CCCCCOC(=O)C(CC(C)C)S(=O)(=O)c1ncn(C(=O)N(CC)CC)n1 (stereo not given)")
10
>>> endpoint_value("CCN(CC)C(=O)n1cnc(S(=O)(=O)C(CC(C)C)C(=O)OC(C)(C)C)n1 (stereo not given)")
10

The reported value for CCOC(=O)C(CC(C)C)S(=O)(=O)c1ncn(C(=O)N(CC)CC)n1 (stereo not given) in terms of Activity is 30

----------
System: Echinochloa oryzicola
Test: Herbicidal activity against Echinochloa oryzicola assessed as killing at 50 g/ha pre-emergence application under paddy conditions
Assay type: functional
RECORDED_METRIC: Activity (%)
Value expressed in %; do not type the unit.

>>> endpoint_value("CC(C)CC(C(=O)OC(C)C)S(=O)(=O)c1ncn(C(=O)N(C)C)n1 (stereo not given)")
60
>>> endpoint_value("CCC(C)CC(C(=O)OC)S(=O)(=O)c1ncn(C(=O)N(CC)CC)n1 (stereo not given)")
90
>>> endpoint_value("CCN(CC)C(=O)n1cnc(S(=O)(=O)C(CC(C)C)C(=O)OC)n1 (stereo not given)")
100
>>> endpoint_value("CCN(CC)C(=O)n1cnc(S(=O)(=O)C(C(=O)OC)C2CC2)n1 (stereo not given)")
10

Now for the compound whose Activity we want.
The reported value for CCCOC(=O)C(CC(C)C)S(=O)(=O)c1ncn(C(=O)N(CC)CC)n1 (stereo not given) in terms of Activity is 100

----------
System: Digitaria ciliaris
Assay: Herbicidal activity against Digitaria ciliaris assessed as killing at 500 g/ha pre-emergence application upland paddy conditions measured after 14 days
Type: functional
# if value of Activity reaches 60%, tag Y; if it stays below, tag N

Reported Activity at or above 60%? CCN(CC)C(=O)n1cnc(S(=O)(=O)C(C(=O)OC)C2CCCC2)n1 (stereo not given)
Y

Reported Activity at or above 60%? C=CC(C)C(C(=O)OC)S(=O)(=O)c1ncn(C(=O)N(CC)CC)n1 (stereo not given)
Y

Reported Activity at or above 60%? CCN(CC)C(=O)n1cnc(S(=O)(=O)C(Cc2ccccc2)C(=O)OC)n1 (stereo not given)
N

Reported Activity at or above 60%? CCN(CC)C(=O)n1cnc(S(=O)(=O)CC(=O)OC)n1
N

Reported Activity at or above 60%? CCCCC(C(=O)OC)S(=O)(=O)c1ncn(C(=O)N(CC)CC)n1 (stereo not given)
Y

Reported Activity at or above 60%? CCN(CC)C(=O)n1cnc(S(=O)(=O)C(CC2CCCCC2)C(=O)OC)n1 (stereo not given)
N

Reported Activity at or above 60%? CCCC(C(=O)OC)S(=O)(=O)c1ncn(C(=O)N(CC)CC)n1 (stereo not given)
Y

Reported Activity at or above 60%? C=C(C)CC(C(=O)OC)S(=O)(=O)c1ncn(C(=O)N(CC)CC)n1 (stereo not given)
Y

Reported Activity at or above 60%? CCC(C)CC(C(=O)OC)S(=O)(=O)c1ncn(C(=O)N(CC)CC)n1 (stereo not given)
Y

----------
Test system: Schoenoplectiella juncoides
Experiment: Herbicidal activity against Schoenoplectiella juncoides assessed as killing at 50 g/ha pre-emergence application under paddy conditions
Type: functional
In this section, each of the molecules is paired with its reported Activity.
I'd appreciate it if you included the unit after the number.

// worked examples, Activity included
>>> endpoint_value("CCN(CC)C(=O)n1cnc(S(=O)(=O)CCC(C)C)n1")
"10%"
>>> endpoint_value("CCN(CC)C(=O)n1cnc(S(=O)(=O)C(CC2CCCCC2)C(=O)OC)n1 (stereo not given)")
"10%"
>>> endpoint_value("CCN(CC)C(=O)n1cnc(S(=O)(=O)C(CC2CC2)C(=O)OC)n1 (stereo not given)")
"60%"
>>> endpoint_value("C=C(C)CC(C(=O)OC)S(=O)(=O)c1ncn(C(=O)N(CC)CC)n1 (stereo not given)")
"60%"
>>> endpoint_value("C=CC(C)C(C(=O)OC)S(=O)(=O)c1ncn(C(=O)N(CC)CC)n1 (stereo not given)")
"10%"

The reported value for CCN(CC)C(=O)n1cnc(S(=O)(=O)C(CC(C)C)C(=O)OCC(C)C)n1 (stereo not given) in terms of Activity is 100%

The reported value for CCN(CC)C(=O)n1cnc(S(=O)(=O)C(CC(=O)OC)C(=O)OC)n1 (stereo not given) in terms of Activity is 10%

The reported value for CCCCCOC(=O)C(CC(C)C)S(=O)(=O)c1ncn(C(=O)N(CC)CC)n1 (stereo not given) in terms of Activity is 40%

----------
In this section, each of the molecules is paired with its reported Activity.
System: Echinochloa oryzicola
Assay: Herbicidal activity against Echinochloa oryzicola assessed as killing at 50 g/ha pre-emergence application under paddy conditions
Type: functional
Value expressed in %; do not type the unit.

>>> endpoint_value("C=CC(C)C(C(=O)OC)S(=O)(=O)c1ncn(C(=O)N(CC)CC)n1 (stereo not given)")
60

The reported value for CC(C)CC(C(=O)OC(C)C)S(=O)(=O)c1ncn(C(=O)N(C)C2CCCCC2)n1 (stereo not given) in terms of Activity is 30

Origin of values: ChEMBL document CHEMBL3044861
